Below is a list of entries, each paired with its recorded Observed Binding ΔG value.
# SYSTEM: T1, Tumor Necrosis Factor-alpha (UniProt P01375 77-233)
# T1 construct: Immobilised on pipette tips or SPR chips (amine coupling or biotin capture); also called TNF-α; TNF-alpha
# T1 sequence (P01375 77-233 limits assumed): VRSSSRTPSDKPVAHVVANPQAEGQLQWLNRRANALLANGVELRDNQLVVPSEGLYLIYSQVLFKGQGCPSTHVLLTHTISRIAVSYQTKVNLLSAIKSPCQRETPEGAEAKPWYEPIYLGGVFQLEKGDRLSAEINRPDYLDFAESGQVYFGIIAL
# ASSAY_COMMENT: SPR (Biacore A100), TNF-α captured, equilibrium response over a concentration series
READOUT_LABEL: Observed Binding ΔG (kcal/mol)

| BINDER | SCALE_UNIT | REPORTED_VALUE |
| --- | --- | --- |
| FERDYLMMPWKFLQSRQGSC [TNF1 P5Y+S11K double mutant] | kcal/mol | -6.63 |
| FERDYLKMPWSFLQSRQGSC [TNF1 P5Y+M7K double mutant] | kcal/mol | -6.24 |
| FERSYLMMPWKFLQSRQGSC (also called D4S + P5Y + S1IK (so in the source)) [TNF1 D4S+P5Y+S11K triple mutant] | kcal/mol | -7.03 |
| FERSYLKMPWKFLQSRQGSC [TNF1-opt (D4S+P5Y+M7K+S11K quadruple mutant)] | kcal/mol | -7.97 |
| FERSYLKMPWSFLQSRQGSC [TNF1 D4S+P5Y+M7K triple mutant] | kcal/mol | -6.63 |
| FERYPLMMPWKFLQSRQGSC [TNF1 D4Y+S11K double mutant] | kcal/mol | -6.67 |
| FERYPLKMPWSFLQSRQGSC [TNF1 D4Y+M7K double mutant] | kcal/mol | -6.54 |
